- measurementTarget: expressed human SULT1A3 (Homo sapiens)
- method: Kinetics of flavonoid sulfonation by SULT1A3
- testParameters: SULT1A3, 0.039–20 µM substrate
Kindly supply the reported Km1 values for the records listed here.
Output should be the measured figure followed by the unit it is expressed in.

Data request: For the compound O=c1cc(-c2ccc(O)cc2)oc2cc(O)ccc12 [7,4’DHF, 7,4'-Dihydroxyflavone] , give its reported Km1.
Data returned: 3.42 µM

Data request: For the compound O=c1c(O)c(-c2ccccc2)oc2cc(O)ccc12 [3,7DHF, 3,7-Dihydroxyflavone] , give its reported Km1.
Data returned: 1.85 µM

Data request: For the compound O=c1cc(-c2ccccc2)oc2cc(O)ccc12 [7HF, 7-Hydroxyflavone] , give its reported Km1.
Data returned: 2.80 µM

Data request: For the compound O=c1cc(-c2ccccc2)oc2cc(O)cc(O)c12 [5,7DHF, 5,7-Dihydroxyflavone] , give its reported Km1.
Data returned: 2.73 µM

###

Kindly supply the reported sulfonation rate values for the records listed here.
- measurementTarget: expressed human SULT1A3 (Homo sapiens)
- method: Sulfonation activities of flavonoids in expressed human SULT1A3
- Format: in vitro ADME
- testParameters: expressed SULT1A3, substrate concentration 10 µM, pH 7.4, 37°C, n=3
Express the result in nmol/hr/mg protein but write the number alone.

Data request: For the compound O=c1cc(-c2ccccc2)oc2cc(O)ccc12 [7HF, 7-Hydroxyflavone] , give its reported sulfonation rate.
Data returned: 48.92

Data request: For the compound O=c1c(O)c(-c2ccc(O)cc2)oc2cc(O)cc(O)c12 [kaempferol, 3,5,7,4’tetrahydroxyflavone] , give its reported sulfonation rate.
Data returned: 5.77

Data request: For the compound O=c1cc(-c2ccc(O)cc2)oc2cc(O)cc(O)c12 [apigenin, 5,7,4'-Trihydroxyflavone] , give its reported sulfonation rate.
Data returned: 19.36

Data request: For the compound O=c1c(O)c(-c2ccccc2)oc2cc(O)cc(O)c12 [3,5,7THF, 3,5,7-Trihydroxyflavone] , give its reported sulfonation rate.
Data returned: 24.98

Data request: For the compound O=C1C[C@@H](c2ccc(O)cc2)Oc2cc(O)cc(O)c21 [naringenin, Naringenin] , give its reported sulfonation rate.
Data returned: 12.03

###

Kindly supply the reported sulfonation rate values for the records listed here.
- measurementTarget: expressed human SULT1A3 (Homo sapiens, UniProt P0DMM9)
- Sequence (P0DMM9 whole entry): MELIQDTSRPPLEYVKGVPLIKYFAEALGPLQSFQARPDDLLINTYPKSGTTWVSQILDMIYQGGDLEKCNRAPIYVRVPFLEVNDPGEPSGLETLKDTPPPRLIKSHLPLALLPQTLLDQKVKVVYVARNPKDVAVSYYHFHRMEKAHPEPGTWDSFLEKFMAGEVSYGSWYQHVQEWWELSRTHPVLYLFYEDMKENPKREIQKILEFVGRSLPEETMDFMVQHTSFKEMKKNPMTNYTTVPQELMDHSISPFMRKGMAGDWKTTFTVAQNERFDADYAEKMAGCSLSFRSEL
- method: Sulfonation activities of flavonoids in expressed human SULT1A3
- Assay type: in vitro ADME
- testParameters: expressed SULT1A3, substrate concentration 10 µM, pH 7.4, 37°C, n=3

Data request: For the molecule O=c1c(O)c(-c2ccc(O)cc2)oc2cc(O)ccc12 [3,7,4'THF, 3,7,4'-Trihydroxyflavone] , give its reported sulfonation rate.
Data returned: 11.79 ± 0.33 nmol/hr/mg protein

Data request: For the molecule O=c1c(O)c(-c2ccc(O)cc2)oc2ccccc12 [3,4’DHF, 3,4'-Dihydroxyflavone] , give its reported sulfonation rate.
Data returned: 0 nmol/hr/mg protein

Data request: For the molecule O=c1cc(-c2ccc(O)cc2)oc2cc(O)ccc12 [7,4’DHF, 7,4'-Dihydroxyflavone] , give its reported sulfonation rate.
Data returned: 10.30 ± 1.64 nmol/hr/mg protein

Data request: For the molecule O=c1c(O)c(-c2ccccc2)oc2cc(O)ccc12 [3,7DHF, 3,7-Dihydroxyflavone] , give its reported sulfonation rate.
Data returned: 74.69 ± 1.05 nmol/hr/mg protein

Data request: For the molecule O=c1cc(-c2ccccc2)oc2cc(O)cc(O)c12 [5,7DHF, 5,7-Dihydroxyflavone] , give its reported sulfonation rate.
Data returned: 85.37 ± 1.53 nmol/hr/mg protein

Data request: For the molecule O=C(CCc1ccc(O)cc1)c1c(O)cc(O)cc1O [phloretin, Phloretin] , give its reported sulfonation rate.
Data returned: 0 nmol/hr/mg protein

Data request: For the molecule O=c1c(-c2ccc(O)cc2)coc2cc(O)cc(O)c12 [genistein, Genistein] , give its reported sulfonation rate.
Data returned: 0 nmol/hr/mg protein

Data request: For the molecule O=c1c(O)c(-c2ccccc2)oc2ccccc12 [3HF, 3-Hydroxyflavone] , give its reported sulfonation rate.
Data returned: 0 nmol/hr/mg protein
